// values below are reported fraction of GFP-LC3-positive cells
Tested on: CbCln3 Δex7/8/Δex7/8 GFP-LC3 cerebellar neuronal cells
Assay: fraction of GFP-LC3-positive cells (≥5 vesicles/cell); higher = more autophagosome accumulation
In all, about 1,700 compounds were measured (“fraction of GFP-LC3-positive cells (≥5 vesicles/cell)”: median about 0.43, highest 2% from about 0.81 on). For the sample, the highest values were picked, then their nearest neighbours and some compounds at random.
Response field accepts a number only; no unit should be typed.

Here are 3 compounds together with their reported answers.
COc1ccc2c(c1OC)CN1CCc3cc4c(cc3C1C2)OCO4 (centres undefined) [(d,l)-Tetrahydroberberine]	0.303
CC[C@@H]1/C=C/C=C/C[C@H](C)[C@@H](O)[C@](C)(O)C(=O)[C@H](C)[C@@H](O)[C@H](C)C(=O)[C@H](C)[C@@H](O)[C@H](C)/C=C/C(=O)O[C@H]2[C@@H](C)[C@@H](CC1)O[C@@]1(CC[C@@H](C)[C@@H](C[C@H](C)O)O1)[C@@H]2C [oligomycin A]	0.578
CN1CCc2cc3c(cc2[C@H]1[C@@H]1OC(=O)c2c1ccc1c2OCO1)OCO3 [Bicuculline (+)]	0.326

Lab note: next compound to report on.
*Q* Which fraction of GFP-LC3-positive cells reading was recorded for the compound O[C@H]1[C@H]2[C@H](O)CCCN2C[C@H]1O [swainsonine] ?
*A* 0.371
